Reference source for all entries: ChEMBL document CHEMBL4825731

Test: Half life in cynomolgus monkey liver microsomes
Type: ADME, Macaca fascicularis, Microsome
In this section we review reported half-life values for a set of compounds.

{"GIVEN SMILES": "[11CH3]Oc1ccc(NC(=O)c2ccn3c(n2)nc2ccccc23)cn1", "half-life": "1 min"}

# context switch: different compound, same half-life
Query: Quick check: half-life of COc1cncc(NC(=O)c2ccn3c(n2)nc2ccccc23)c1 ?
Reply: 4 min

----------
# key: entry, value: Papp
Assay: Apparent permeability in MDCK cells
Type: ADME, cell-based, Canis lupus familiaris
Details: dog
// note: answer is a bare numeric in ×10⁻⁶ cm/s

{"GIVEN SMILES": "[11CH3]Oc1ccc(NC(=O)c2ccn3c(n2)nc2ccccc23)cn1", "DISPLAY UNIT": "×10⁻⁶ cm/s", "Papp": 9.4}

Now for another entry.
Query: Could you share which Papp value was measured for COc1cncc(NC(=O)c2ccn3c(n2)nc2ccccc23)c1 ?
Reply: 12.5

----------
Assay: Stability in human plasma assessed as half life
Type: ADME, cell-free
MEASURED QUANTITY: half-life (h)
Write down the numeric answer in h and omit the unit.

Query: # half-life lookup, item [11CH3]Oc1ccc(NC(=O)c2ccn3c(n2)nc2ccccc23)cn1
Reply: 2.12

----------
Assay: Half life in human liver microsomes
Type: ADME, Microsome
MEASURED QUANTITY: half-life (min)
API: value field is a number in min; no unit string.

Query: Can you share its half-life? I mean this molecule: COc1cncc(NC(=O)c2ccn3c(n2)nc2ccccc23)c1
Reply: 12

Query: Lookup [11CH3]Oc1ccc(NC(=O)c2ccn3c(n2)nc2ccccc23)cn1
Reply: 8

----------
Assay: Displacement of [3]10-methoxy-N-(pyridin-3-yl-7-thia-2,5-diazatricyclo(6.4.0.0 2.6)-dodeca-1(12),3,5,8,10-pentaene-4-carboxamide from polyglutamine Q46 aggregate (unknown origin) by radio ligand binding assay
Set-up: species or system Homo sapiens
Details: read-out: IC50
MEASURED QUANTITY: IC50 (nM)
Respond with the bare value in nM.

Use these answered entries as a reference point.
{"COMPOUND": "Cn1nc(NC(=O)c2ccn3c(n2)nc2ccccc23)ccc1=O", "IC50, nM": 16}
{"COMPOUND": "Cn1cc(NC(=O)c2ccn3c(n2)nc2ccccc23)cnc1=O", "IC50, nM": 302}
{"COMPOUND": "COc1ccc2c(c1)nc1nc(C(=O)NC3CCCc4cccnc43)ccn12 (stereo unspecified)", "IC50, nM": 48}
{"COMPOUND": "COc1ccc(NC(=O)c2ccc3c4cnccc4n(C(=O)OC(C)(C)C)c3n2)cn1", "IC50, nM": 2.8}
{"COMPOUND": "COc1ccc(NC(=O)c2ccnc(Nc3ccncc3)n2)cn1", "IC50, nM": 5.3}

Query: Reported IC50 for COc1cncc(NC(=O)c2ccn3c(n2)nc2cc(OC)ccc23)c1 : what is it?
Reply: 2.1

Query: Next record, please: COc1ccc2c(c1)nc1nc(C(=O)Nc3ccc(OC)nc3)ccn12
Reply: 2.3

Query: Try COc1ncc(NC(=O)c2ccn3c(n2)nc2ccccc23)cc1C next.
Reply: 2.8

Query: Same read-out for COc1cncc(NC(=O)c2ccn3c(n2)nc2ccccc23)c1 ?
Reply: 3.5

Query: And COc1ccc2c(c1)nc1nc(C(=O)Nc3cccnn3)ccn12 ?
Reply: 17

----------
Assay: Fraction unbound in mouse brain homogenate at 5 uM incubated for 6 hrs shaking at 250 rpm by LC-MS/MS analysis
Assay type: ADME, tissue-based
# Satisfied = fraction unbound at 6 h, 5 µM below 0.2 (exclusive); Not satisfied = fraction unbound at 6 h, 5 µM at/above 0.2

The following molecules have reported results that may help.
{"MOLECULE": "COc1ccc(NC(=O)c2ccnc(Nc3ccncc3)n2)cn1", "LABEL CLASS": "Satisfied"}
{"MOLECULE": "COc1ccc2c(c1)nc1nc(C(=O)N3Cc4cccnc4C3)ccn12", "LABEL CLASS": "Not satisfied"}
{"MOLECULE": "COc1ccc2c(c1)sc1nc(C(=O)Nc3cccnc3)cn12", "LABEL CLASS": "Satisfied"}
{"MOLECULE": "COc1ccc2c(c1)nc1nc(C(=O)Nc3ccccn3)ccn12", "LABEL CLASS": "Satisfied"}
{"MOLECULE": "COc1ccc(NC(=O)c2ccc3c(c2)nc2ncccn23)cn1", "LABEL CLASS": "Not satisfied"}

Query: Lab note: fraction unbound at 6 h, 5 µM threshold 0.2. Does this molecule come in strictly under it? O=C(Nc1ccc(=O)[nH]c1)c1ccn2c(n1)nc1ccccc12
Reply: Not satisfied

Query: Next entry: COc1cncc(NC(=O)c2ccn3c(n2)nc2cc(OC)ccc23)c1
Reply: Satisfied

Query: Next record, please: COc1ccc2c(c1)nc1nc(C(=O)Nc3cccnn3)ccn12
Reply: Not satisfied

----------
Biological target: Amyloid-beta precursor protein (Homo sapiens) (UniProt P05067)
Sequence (P05067 whole entry): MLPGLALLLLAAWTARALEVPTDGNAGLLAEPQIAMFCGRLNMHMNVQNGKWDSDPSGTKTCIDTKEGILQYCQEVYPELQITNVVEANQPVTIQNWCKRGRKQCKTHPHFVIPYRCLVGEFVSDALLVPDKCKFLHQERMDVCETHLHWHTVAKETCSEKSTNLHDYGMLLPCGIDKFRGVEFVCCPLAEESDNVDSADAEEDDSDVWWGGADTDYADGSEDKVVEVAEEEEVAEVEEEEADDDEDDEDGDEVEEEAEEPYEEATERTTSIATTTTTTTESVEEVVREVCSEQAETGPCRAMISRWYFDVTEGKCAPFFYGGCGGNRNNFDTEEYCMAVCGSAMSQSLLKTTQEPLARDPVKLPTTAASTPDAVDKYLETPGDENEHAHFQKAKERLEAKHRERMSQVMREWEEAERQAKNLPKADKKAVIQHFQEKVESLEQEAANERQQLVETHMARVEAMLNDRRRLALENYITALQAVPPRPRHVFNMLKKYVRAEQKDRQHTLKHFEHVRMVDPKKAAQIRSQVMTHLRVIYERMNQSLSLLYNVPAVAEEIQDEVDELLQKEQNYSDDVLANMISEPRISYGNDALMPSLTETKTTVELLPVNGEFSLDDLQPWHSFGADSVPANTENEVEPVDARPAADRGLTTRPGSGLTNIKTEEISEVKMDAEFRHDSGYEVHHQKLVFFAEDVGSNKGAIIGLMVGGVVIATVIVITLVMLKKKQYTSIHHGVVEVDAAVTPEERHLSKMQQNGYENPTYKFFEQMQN
Experiment: Displacement of [3]10-methoxy-N-(pyridin-3-yl-7-thia-2,5-diazatricyclo(6.4.0.0 2.6)-dodeca-1(12),3,5,8,10-pentaene-4-carboxamide from human Amyloid beta plaques using AD postmortem patient brain homogenates at 1 uM incubated for 2 hr by radio ligand binding assay relative to control
Assay type: tissue-based
MEASURED QUANTITY: Activity (%)
Dear colleague, please return just the value in %, with no unit written.

Worked examples follow.
{"COMPOUND": "COc1ccc2c(c1)nc1nc(C(=O)Nc3ccccn3)ccn12", "Activity / %": 41}
{"COMPOUND": "COc1ncc(NC(=O)c2ccn3c(n2)nc2ccccc23)cc1C", "Activity / %": -29}
{"COMPOUND": "COc1ccc2c(c1)nc1nc(C(=O)N3Cc4cccnc4C3)ccn12", "Activity / %": 0}
{"COMPOUND": "COc1ccc2c(c1)nc1nc(C(=O)NC3CCCc4cccnc43)ccn12 (stereo unspecified)", "Activity / %": 8}
{"COMPOUND": "COc1ccc2c(c1)nc1nc(C(=O)Nc3ccc(OC)nc3)ccn12", "Activity / %": 13}
{"COMPOUND": "COc1cc(NC(=O)c2ccn3c(n2)nc2ccccc23)cnc1OC", "Activity / %": 21}
{"COMPOUND": "Cc1cc(NC(=O)c2ccn3c(n2)nc2ccccc23)cnc1C", "Activity / %": 21}
{"COMPOUND": "COc1cncc(NC(=O)c2ccn3c(n2)nc2ccccc23)c1", "Activity / %": 25}

Query: Would you kindly share the measured Activity for Cn1nc(NC(=O)c2ccn3c(n2)nc2ccccc23)ccc1=O ?
Reply: 12

Query: For CNc1ccc(-c2cn3c(n2)sc2cc(OCCF)ccc23)cc1 then?
Reply: 130

Query: Then this compound: COc1ccc2c(c1)nc1nc(C(=O)Nc3ccncn3)ccn12
Reply: 30

----------
Test: Fraction unbound in brain concentration ratio in C57BL/6 mouse at 0.05 mg/kg, iv
Type: ADME, organism-based
molecules and their reported fraction unbound
Give the value as a plain number.

Query: Could you share which fraction unbound value was measured for [11CH3]Oc1ccc(NC(=O)c2ccn3c(n2)nc2ccccc23)cn1 ?
Reply: 0.11

Query: Also COc1cncc(NC(=O)c2ccn3c(n2)nc2ccccc23)c1 , if possible.
Reply: 0.21

----------
Listed below: IC50 values for each entry.
Experiment: Displacement of [3]10-methoxy-N-(pyridin-3-yl-7-thia-2,5-diazatricyclo(6.4.0.0 2.6)-dodeca-1(12),3,5,8,10-pentaene-4-carboxamide from polyglutamine Q46 aggregate (unknown origin) by radio ligand binding assay
Parameters: species or system Homo sapiens
Conditions: read-out: IC50
Give the value, in units of nM, as a plain number.

Query: Look up IC50 for this compound: COc1ccc(COc2ccn3c(n2)nc2ccccc23)cn1
Reply: 54

----------
# maps each entry to its half-life
Test: Half life in mouse liver microsomes
Assay type: ADME, Microsome
Value expressed in min; do not type the unit.

{"GIVEN SMILES": "[11CH3]Oc1ccc(NC(=O)c2ccn3c(n2)nc2ccccc23)cn1", "half-life [min]": 8}

Could you now look at the following compound, please?
Query: Look at this compound and give its reported half-life. COc1cncc(NC(=O)c2ccn3c(n2)nc2ccccc23)c1
Reply: 4

----------
Consider the following molecules and their measured Activity readings.
Target: Amyloid-beta precursor protein (Homo sapiens)
Assay: Displacement of [3]10-methoxy-N-(pyridin-3-yl-7-thia-2,5-diazatricyclo(6.4.0.0 2.6)-dodeca-1(12),3,5,8,10-pentaene-4-carboxamide from human Amyloid beta plaques using AD postmortem patient brain homogenates at 1 uM incubated for 2 hr by radio ligand binding assay relative to control
Assay type: tissue-based
Entry rule: numbers only, all in %.

// worked examples, Activity included
{"GIVEN SMILES": "O=C(Nc1cccnc1)c1ccn2c(n1)nc1ccccc12", "Activity (%)": -12}
{"GIVEN SMILES": "FCCC1CCN(c2ccn3c(n2)nc2ccccc23)CC1", "Activity (%)": 34}
{"GIVEN SMILES": "COc1ccc2c(c1)sc1nc(C(=O)Nc3cccnc3)cn12", "Activity (%)": 100}

Query: Look up Activity with Amyloid-beta precursor protein (Homo sapiens) for this molecule: O=C(Nc1ccccn1)c1ccn2c(n1)nc1ccccc12
Reply: 24

Query: Do the same for COc1ccc2c(c1)nc1nc(C(=O)Nc3cccnc3)ccn12 please
Reply: 17

Query: Now give it for COc1cncc(NC(=O)c2ccn3c(n2)nc2cc(OC)ccc23)c1 too.
Reply: 5
